Where do these numbers come from? They come from PubChem BioAssay (NCI).

Test system: T-47D breast
Experiment: NCI-60 one-dose screen, 48 h
Settings: 10 µM unless noted
Protocol: Growth inhibition of the T-47D human tumor cell line is measured as a screen for anti-cancer activity. Cells are grown in 96 well plates and exposed to the test compound for 48 hours. Compounds are tested at a single concentration, which is 10^-5 M for most compounds. The reported endpoint is percent growth (GI% or GIPRCNT), where numbers from 0 - 100% represent growth inhibition, and numbers from -100% - 0 represent cell death. For example, a value of 40 represents 60% growth inhibition. […]
About 83,000 compounds went through this panel and 20% of them were active in at least one assay; those are over-represented in the sample as a whole. Activity calls are given as the source filed them. How the source made its calls: active means growth percent below 10; inactive means the rest.
Outcomes: active, inactive

# MOLECULE, CLASS
rows = [
    ("Nc1nc(SCc2cccc([N+](=O)[O-])c2)c2[nH]cnc2n1", "inactive"),
    ("CCOc1ccc(/C=C(\\C#N)c2cc3ccccc3[nH]2)cc1", "inactive"),
    ("C=C(C)[C@@H]1CC[C@]2(C(=O)N3CCN(C)CC3)CC[C@]3(C)[C@H](CC[C@@H]4[C@@]5(C)C/C(=C/c6ccncc6)[C@H](O)C(C)(C)[C@@H]5CC[C@]43C)[C@@H]12", "inactive"),
    ("COc1cc(/C=C/C(=O)/C=C/c2ccc(-n3ccnc3)cc2)ccc1O", "inactive"),
    ("CCOC(=O)C(=Cc1ccccc1[N+](=O)[O-])C(=O)OCC", "inactive"),
    ("Cc1cnc([C@]23CC[C@@H](C)[C@H](C)[C@H]2C2=CC[C@@H]4[C@@]5(C)Cc6c([nH]c7ccccc67)C(C)(C)[C@@H]5CC[C@@]4(C)[C@]2(C)CC3)o1", "inactive"),
    ("CCc1ccc(-c2ccc(COc3ccc(CC4SC(=O)NC4=O)cc3)cc2)cc1 (centres undefined)", "inactive"),
    ("C=C(C)[C@@H]1CC[C@]2(COCCC#N)CC[C@]3(C)[C@H](CC[C@@H]4[C@@](C)(CCCNCCC#N)[C@H](C(=C)C)CC[C@]43C)[C@@H]12", "inactive"),
    ("O=C1COCCN1c1ccc(NCc2cn(Cc3ccc(F)cc3)c3ccccc23)cc1", "active"),
]
